src = patent US8367687B2

biological target: hCDK1/B (Homo sapiens, UniProt P06493); experiment: hCDK1/B; assay type: biochemical; settings: Table 2
Sequence (P06493 whole entry): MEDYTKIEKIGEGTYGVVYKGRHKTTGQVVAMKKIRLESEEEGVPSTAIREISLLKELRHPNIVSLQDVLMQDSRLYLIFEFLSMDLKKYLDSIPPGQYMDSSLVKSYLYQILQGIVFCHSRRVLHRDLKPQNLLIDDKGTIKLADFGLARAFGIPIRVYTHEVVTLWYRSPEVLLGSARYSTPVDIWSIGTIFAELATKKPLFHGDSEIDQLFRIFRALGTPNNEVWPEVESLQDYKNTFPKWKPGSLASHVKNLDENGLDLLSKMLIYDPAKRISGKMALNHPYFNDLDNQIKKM
Sequence (P14635 whole entry partner): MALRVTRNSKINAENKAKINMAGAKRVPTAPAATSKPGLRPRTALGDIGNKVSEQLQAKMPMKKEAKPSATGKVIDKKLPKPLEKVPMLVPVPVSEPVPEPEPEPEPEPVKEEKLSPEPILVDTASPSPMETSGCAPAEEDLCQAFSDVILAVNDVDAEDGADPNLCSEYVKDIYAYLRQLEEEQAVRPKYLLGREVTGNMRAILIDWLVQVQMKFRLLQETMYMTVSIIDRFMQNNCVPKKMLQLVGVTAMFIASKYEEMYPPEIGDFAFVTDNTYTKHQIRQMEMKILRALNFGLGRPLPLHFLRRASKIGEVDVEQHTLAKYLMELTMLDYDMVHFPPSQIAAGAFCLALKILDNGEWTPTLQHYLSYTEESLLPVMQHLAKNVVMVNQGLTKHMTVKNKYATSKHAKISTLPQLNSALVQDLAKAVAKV
Collected IC50 values appear next to each entry.

Below: 4 molecules and their reported IC50.
{"columns": ["MOLECULE", "IC50"],
 "data": [
  ["Cc1n[nH]cc1-c1ccnc(NC2CC2)n1", "< 10 µM"],
  ["Cc1ccccc1CNc1nccc(-c2c[nH]nc2C(C)C)n1", "< 0.5 µM"],
  ["CC(C)c1n[nH]cc1-c1ccnc(NC2CCCc3cccnc32)n1 (stereo not drawn)", "≥ 15 µM"],
  ["CC(C)c1n[nH]cc1-c1ccnc(NC2CCN(Cc3ccccc3)CC2)n1", "< 0.5 µM"]
]}

Query: Endpoint output: IC50 of `Cc1cnc(NC2CCN(C)CC2)nc1-c1c[nH]nc1C(C)C` . Value?
Response: < 5 µM

Query: Endpoint output: IC50 of `CC(C)c1n[nH]cc1-c1ccnc(NCCCNC2CCCCC2)n1` . Value?
Response: < 15 µM

Query: Endpoint output: IC50 of `Cc1n[nH]cc1-c1ccnc(NCC(C)C)n1` . Value?
Response: < 5 µM

Query: Endpoint output: IC50 of CC(C)c1n[nH]cc1-c1ccnc(NC2CCC(C)(C)c3ccccc32)n1 (stereo not drawn) . Value?
Response: ≥ 15 µM

Query: Endpoint output: IC50 of `CCN(CC)CCNc1nccc(-c2c[nH]nc2C(C)C)n1` . Value?
Response: ≥ 15 µM

----------
Collected pIC50 values appear next to each entry.
target: CDK2 cyA (Homo sapiens); assay: CDK2 cyA IMAP; format: biochemical; settings: Table 1; read-out: CDK2 cyA IMAP
pIC50: −log10 of the molar value.

Below: 2 compounds and their reported pIC50.
{"columns": ["SMILES_INPUT", "pIC50"],
 "data": [
  ["FC(F)(F)c1ccccc1CNc1cc(-c2cn[nH]c2C2CCCC2)ccn1", "> 5.30"],
  ["CC(C)c1[nH]ncc1-c1ccnc(NCc2cc(F)cc(F)c2)c1", "> 5.30"]
]}

Query: Record `CC(C)c1[nH]ncc1-c1ccnc(NCc2ccc3c(c2)OCO3)c1` : what is its pIC50 with CDK2 cyA (Homo sapiens)?
Response: > 5.30

----------
molecular target: hCDK1/B (Homo sapiens); assay: hCDK1/B; type: biochemical; details: Table 1
pIC50: −log10 of the molar value.
Collected pIC50 values appear next to each entry.

{"columns": ["COMPOUND", "pIC50"],
 "data": [
  ["CC(C)c1[nH]ncc1-c1ccnc(NCCCn2ccnc2)c1", "> 6.30"]
]}

Now look at this entry.
Query: Endpoint output: pIC50 of CCC(C)Nc1cc(-c2cn[nH]c2C(C)C)ccn1 (centres unmarked) . Value?
Response: > 5.30

----------
target: hCDK1/B (Homo sapiens, UniProt P06493); test: hCDK1/B; type: biochemical; details: Table 2
pIC50: −log10 of the molar value.
Collected pIC50 values appear next to each entry.

{"columns": ["COMPOUND", "TEST_TARGET", "pIC50"],
 "data": [
  ["Cc1n[nH]cc1-c1ccnc(NC2CCCC2)n1", "hCDK1/B (Homo sapiens, UniProt P06493)", "> 5.30"],
  ["Cc1ccccc1CNc1nccc(-c2c[nH]nc2C)n1", "hCDK1/B (Homo sapiens, UniProt P06493)", "> 5.00"],
  ["CC(CCCC(C)(C)O)Nc1nccc(-c2c[nH]nc2C(C)C)n1 (stereo not shown)", "hCDK1/B (Homo sapiens, UniProt P06493)", "> 6.00"],
  ["CC(C)c1n[nH]cc1-c1ccnc(NCc2ccccc2Cl)n1", "hCDK1/B (Homo sapiens, UniProt P06493)", "> 6.00"],
  ["Cc1n[nH]cc1-c1ccnc(NCCc2ccccc2)n1", "hCDK1/B (Homo sapiens, UniProt P06493)", "> 5.00"]
]}

Query: Endpoint output: pIC50 of `CC(C)c1n[nH]cc1-c1ccnc(N[C@H]2CCc3ccccc32)n1` . Value?
Response: > 5.30

Query: Endpoint output: pIC50 of `Cc1n[nH]cc1-c1ccnc(NC2CCCCC2)n1` . Value?
Response: > 5.30

Query: Endpoint output: pIC50 of COCC(C)Nc1nccc(-c2c[nH]nc2C(C)C)n1 (stereo not shown) . Value?
Response: > 6.00

Query: Endpoint output: pIC50 of Cc1n[nH]cc1-c1ccnc(NC2CCCN(C(=O)OC(C)(C)C)C2)n1 (stereo not shown) . Value?
Response: ≤ 4.82

Query: Endpoint output: pIC50 of CC(C)c1n[nH]cc1-c1ccnc(NC2CC(C)(C)c3ccccc32)n1 (stereo not shown) . Value?
Response: > 5.30
